B1: LINE1-full (parent)
chain: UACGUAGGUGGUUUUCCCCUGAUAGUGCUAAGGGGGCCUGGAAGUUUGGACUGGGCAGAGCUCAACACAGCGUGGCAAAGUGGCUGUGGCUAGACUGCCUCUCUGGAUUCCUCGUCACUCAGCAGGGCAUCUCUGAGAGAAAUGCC

variants of: B1; experiment: self-cleavage, relative activity (ratio to wild type); higher = more cleavage; in vitro, sequencing; the parent is a self-cleaving ribozyme
self-cleavage listing for selected variants.

Illustrative cases are given below, each with its answer.
The variant identified as `UACGUAGGUGGUUUUCCCCUGAUAGUGCUAAGGGGGCCUGGAAGUUUGGACUGGGCAGAGCUCAACACAGCGUGGCAAAGUGGCUGUGGCUAGAUUGCCUCUCUGGAUUCCUCGUCACUCAGCAGGGCAUCCCUGAGAGAAAUGCC` registered its self-cleavage at 0.21

# variant `UACGUAGGUGGUUUUCCCCUGAUAGUGCUAAGGGGGCCCGGAAGUUUGGACUGGGCAGAGCUCAACACAGCGUGGCAAAGUGGCUGUGGCUAGACUGCCUCUCUGGAUUCCUCGUCACUCAGCAGGGCAUCUCGGAGAGAAAUGCC` ; its self-cleavage = 1.39

Notebook: `UACGUAGGUGGUUUUCCCCUGAUAGUGCUAAGGGGGCCUGGAAGUUUGGACUGGGCAGAGCUCAACACAGCGUGGCAAAGUGGCUGUGGCUAGACUGCCUCUCUGGAUUCCUCGCCACUCAGCAGGGCAUAUCUGAGAGAAAUGCC` , self-cleavage read as 0.47

Next:
Entry `UACGUAGGUGGUUUUCCCCUGAUAGUGCUAAGGGGGCCUGGAAGUUUGGACUGGGCAGAGCUCAACACAGCGAGGCAAAGUGGCUGUGGCAAGACUGCCUCUCUGGAUUCCUCGUCACUCAGCAGGGCAUCUCUGAGAGAAAUGCC` , self-cleavage reported as 0.72

Recorded result, `UACGUAGGUGGUUUUCCCCUGAUAGUGCUAAGGUGGCCUGGUAGUUUGGACUGGGCAGAGCUCAACACAGCGUGGCAAAGUGGCUGUGGCUAGACUGCCUCUCUGGAUUCCUCGUCACUCAGCAGGGCAUCUCUGAGAGAAAUGCC` , self-cleavage: 1.15

Cited source for all entries: the RNAGym collection of RNA variant scans (doi:10.7554/elife.90254)
